compounds and their reported log10(IC50)
Biological target: mouse SMO^WT (Mus musculus)
Construct: expressed in transfected cells
Sequence (P56726 33-793): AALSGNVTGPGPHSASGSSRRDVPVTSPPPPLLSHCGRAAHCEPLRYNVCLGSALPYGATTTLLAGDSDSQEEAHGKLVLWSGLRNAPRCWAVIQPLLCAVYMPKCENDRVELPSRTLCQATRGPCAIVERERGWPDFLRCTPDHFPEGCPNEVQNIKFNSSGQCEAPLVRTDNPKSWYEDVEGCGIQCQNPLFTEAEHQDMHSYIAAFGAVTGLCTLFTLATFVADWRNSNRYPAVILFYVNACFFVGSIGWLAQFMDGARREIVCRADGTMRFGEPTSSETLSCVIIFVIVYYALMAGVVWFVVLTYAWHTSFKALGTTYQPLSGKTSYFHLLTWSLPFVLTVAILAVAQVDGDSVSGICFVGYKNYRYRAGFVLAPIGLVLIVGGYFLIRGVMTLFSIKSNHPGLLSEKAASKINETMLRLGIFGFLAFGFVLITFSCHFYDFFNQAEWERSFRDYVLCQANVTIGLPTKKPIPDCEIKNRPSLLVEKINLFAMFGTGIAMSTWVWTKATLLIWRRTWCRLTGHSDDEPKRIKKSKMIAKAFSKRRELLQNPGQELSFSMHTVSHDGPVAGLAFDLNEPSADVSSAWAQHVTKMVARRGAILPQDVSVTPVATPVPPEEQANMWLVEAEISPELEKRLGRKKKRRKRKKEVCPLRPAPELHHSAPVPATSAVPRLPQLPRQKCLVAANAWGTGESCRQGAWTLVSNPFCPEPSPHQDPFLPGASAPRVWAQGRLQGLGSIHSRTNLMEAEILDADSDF
Experiment: Mouse assay: Gli1 qPCR in MEF cells stably expressing mouse SMO WT
Format: cell-based
Settings: mSHh-treated, 24 hours, Gli1 inhibition by qPCR, read-out: Mouse WT pIC50 (converted)
Please interpret these as log10 of IC50 where IC50 is in nM.

Worked cases, log10(IC50) given:
                                   compound  outcomemeasure  valuemeasured
0  Cc1ccc(Cc2n[nH]c(-c3ccc(NC(=O)c4cccc(CN5CCS(=O)(=O)CC5)c4)cc3)n2)cc1C [Example 3-25]     log10(IC50)           0.30
1  O=C(Nc1ccc(-c2nc(-c3cccc(F)c3)n[nH]2)cc1)c1cccc(CN2CCS(=O)(=O)CC2)c1 [Example 3-10]     log10(IC50)           1.10
2  O=C(Nc1ccc(-c2nc(Cc3ccccc3)n[nH]2)cc1)c1cccc(CN2CCS(=O)(=O)CC2)c1 [Example 3-17]     log10(IC50)           0.80

log10(IC50) for Cc1c(-c2ccc(NC(=O)c3ccc(Cl)c(CN4CCS(=O)(=O)CC4)c3)cc2)n[nH]c1C1CC1 [Example 4-22] is 0.30

log10(IC50) for O=C(Nc1ccc(-c2cc(C3CC3)[nH]n2)nc1)c1ccc(Cl)c(CN2CCS(=O)(=O)CC2)c1 [Example 5-3] is 1.80

log10(IC50) for O=C(Nc1ccc(-c2nc(CC3CC3)n[nH]2)cc1)c1cccc(CN2CCS(=O)(=O)CC2)c1 [Example 3-7] is 1.40

log10(IC50) for O=C(Nc1ccc(-c2nc(Cc3ccc(Cl)cc3)n[nH]2)cc1)c1cccc(CN2CCS(=O)(=O)CC2)c1 [Example 3-23] is 0.90

* * *

Molecular target: mouse SMO^WT (Mus musculus)
Construct: expressed in transfected cells
Test: Mouse assay: Gli1 qPCR in MEF cells stably expressing mouse SMO WT
Assay type: cell-based
Details: mSHh-treated, 24 hours, Gli1 inhibition by qPCR, read-out: Mouse WT pIC50 (converted)
Threshold 20 nM: IC50 strictly smaller gives 1.0, otherwise 0.0.

Examples from the recorded data:
>>> print(df.to_string())
                                   compound  classlabel
0  O=C(Nc1ccc(-c2noc(C3CCCC3)n2)cc1)c1cccc(CN2CCS(=O)(=O)CC2)c1 [Example 4-14]         1.0
1  Cc1ccc(Cc2nc(-c3ccc(NC(=O)c4cccc(CN5CCS(=O)(=O)CC5)c4)cc3)no2)cc1 [Example 4-16]         1.0
2  Cl.O=C(Nc1ccc(-c2noc(C3CC3)n2)cc1)c1cccc(CN2CCS(=O)(=O)CC2)c1 [Example 4-12]         1.0

stdin: Here's an entry: O=C(Nc1ccc(-c2nc(CCc3ccccc3)n[nH]2)cc1)c1cccc(CN2CCS(=O)(=O)CC2)c1 [Example 3-31] . Is its IC50 below 20 nM?
stdout: 0.0

stdin: Here's an entry: O=C(Nc1ccc(-c2cc(Cc3ccccc3)n[nH]2)cc1)c1cccc(CN2CCS(=O)(=O)CC2)c1 [Example 4-21] . Is its IC50 below 20 nM?
stdout: 1.0

stdin: Here's an entry: Cl.Cn1nc(-c2ccc(NC(=O)c3cccc(CN4CCS(=O)(=O)CC4)c3)cc2)nc1C1CC1 [Example 4-27] . Is its IC50 below 20 nM?
stdout: 1.0

stdin: Here's an entry: O=C(Nc1ccc(-c2cc(C3CC3)n[nH]2)cc1)c1cccc(CN2CCS(=O)(=O)CC2)c1 [Example 4-19] . Is its IC50 below 20 nM?
stdout: 1.0

stdin: Here's an entry: Cc1c(-c2ccc(NC(=O)c3cccc(CN4CCS(=O)(=O)CC4)c3)cc2)nn(C)c1C1CC1 [Example 4-25] . Is its IC50 below 20 nM?
stdout: 1.0

stdin: Here's an entry: Cn1nc(-c2ccc(NC(=O)c3cccc(CN4CCS(=O)(=O)CC4)c3)cn2)cc1C1CC1 [Example 5-4] . Is its IC50 below 20 nM?
stdout: 1.0

stdin: Here's an entry: O=C(Nc1ccc(-c2nc(C3CC3)n[nH]2)cc1)c1ccc(Cl)c(CN2CCS(=O)(=O)CC2)c1 [Example 2-5] . Is its IC50 below 20 nM?
stdout: 1.0

stdin: Here's an entry: CC(C)(C)c1n[nH]c(-c2ccc(NC(=O)c3cccc(CN4CCS(=O)(=O)CC4)c3)cc2)n1 [Example 3-2] . Is its IC50 below 20 nM?
stdout: 0.0

stdin: Here's an entry: Cc1ccc(Cc2n[nH]c(-c3ccc(NC(=O)c4cccc(CN5CCS(=O)(=O)CC5)c4)cc3)n2)cc1 [Example 3-18] . Is its IC50 below 20 nM?
stdout: 1.0

stdin: Here's an entry: O=C(Nc1ccc(-c2cc(C3CC3)n[nH]2)cc1)c1ccc(Cl)c(CN2CCS(=O)(=O)CC2)c1 [Example 4-20] . Is its IC50 below 20 nM?
stdout: 1.0

stdin: Here's an entry: CC(C)c1noc(-c2ccc(NC(=O)c3cccc(CN4CCS(=O)(=O)CC4)c3)cc2)n1 [Example 4-10] . Is its IC50 below 20 nM?
stdout: 1.0

stdin: Here's an entry: O=C(Nc1ccc(-c2nc(Cc3ccc(F)cc3)n[nH]2)cc1)c1cccc(CN2CCS(=O)(=O)CC2)c1 [Example 3-21] . Is its IC50 below 20 nM?
stdout: 0.0

stdin: Here's an entry: COc1ccc(Cc2n[nH]c(-c3ccc(NC(=O)c4cccc(CN5CCS(=O)(=O)CC5)c4)cc3)n2)cn1 [Example 3-30] . Is its IC50 below 20 nM?
stdout: 0.0

stdin: Here's an entry: COc1cccc(Cc2n[nH]c(-c3ccc(NC(=O)c4cccc(CN5CCS(=O)(=O)CC5)c4)cc3)n2)c1 [Example 3-22] . Is its IC50 below 20 nM?
stdout: 1.0

stdin: Here's an entry: Cl.O=C(Nc1ccc(-c2nc(C3CC3)no2)cc1)c1cccc(CN2CCS(=O)(=O)CC2)c1 [Example 4-11] . Is its IC50 below 20 nM?
stdout: 0.0

stdin: Here's an entry: O=C(Nc1ccc(-c2nc(C3CC3)n[nH]2)cc1)c1cccc(CN2CCS(=O)(=O)CC2)c1 [Example 3-3] . Is its IC50 below 20 nM?
stdout: 1.0
